# System under test: human MyD88 (human) (UniProt Q99836)
# Test description: P8 phage display panning on plate-immobilised MyD88, after round 4, NGS
Value kind: NGS count (count)

Known results for binders:
YASYDDNDYYWVTHVLLRHL = 5890
WALDELLQILHARELF = 14400
DPQDLDWFYERLVSLF = 54800
YLLLSVFQTIFARRTE = 7160
DPQDLEWFYERLFSQM = 4490

P = SAAYDDFWDRLIRMIE
Q = HWIDWEYFVGIEDHIK
Q) Which one would you say has the larger NGS count value: P , or Q ? Reply briefly: the label of your chosen item.
A) P
(P: 5340 count, Q: 3420 count)

Recorded values, source patent EP4613859A1.
